Provenance of the data: patent US20200087363A1

- testedTarget: T1, HLA-B*44:05 (human)
- T1 construct: also called peptide-receptive MHC class I molecule
- assayOverview: UV peptide exchange, anti-b2m ELISA
observedProperty: peptide exchange yield

Quick one: give measured peptide exchange yield for TEANVQALF
> 75%

Others:
Specify reported peptide exchange yield for the binder shown: REMFVFKDQW
> 75%

Supply recorded peptide exchange yield for HEDPSGSLHL here.
50 to 75%

Consider the binder AEGYLDLDGI . State its measured peptide exchange yield.
20 to 50%
